# Tested on: Fer (mouse);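 further: 11-residue human phosphosite peptides and single-mutation variants displayed on the E. coli surface, counted by deep sequencing, each peptide's frequency after selection divided by its frequency in the unselected input library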;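 further: frequency after pTyr selection over input frequency; kinase dosed for 20-30% of maximal phosphorylation in three min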
# assayRemarks: phosphorylation enrichment, bacterial display (enrichment ratio); higher = better substrate or ligand; peptides without Tyr show the background
Values of phosphorylation enrichment greater than or equal to 0.5 map to Condition met; values below map to Condition not met.

INSERT INTO assay_data (itemsequence, assayedtarget, label) VALUES
  ('GNLLIYTEFGK [HGD_Y166]', 'Fer (mouse)', 'Condition met'),
  ('FTGDIYSNSNL [LZTR1_Y141_YF]', 'Fer (mouse)', 'Condition met'),
  ('REQREYLEQLN [CCDC88B_Y1277_D1279E]', 'Fer (mouse)', 'Condition met'),
  ('DTFDPYLDVAL [USP36_Y268_YF]', 'Fer (mouse)', 'Condition met'),
  ('GQLIFYAPPEW [CNTN6_Y315]', 'Fer (mouse)', 'Condition met'),
  ('EATKGHLDDPT [G6PD_Y322_Y322H]', 'Fer (mouse)', 'Condition met'),
  ('WQQQSYLASGI [CTNNB1_Y30_D32A]', 'Fer (mouse)', 'Condition not met'),
  ('SRDTRYLVLAV [AMH_Y195]', 'Fer (mouse)', 'Condition met'),
  ('SQQTYYPVSNM [ABCD1_Y181_R182P]', 'Fer (mouse)', 'Condition met'),
  ('MGGSLYFSFPD [HIKESHI_Y55_V54L_YF]', 'Fer (mouse)', 'Condition met'),
  ('KKRSSYGNSSD [SELENOK_Y52_R50S]', 'Fer (mouse)', 'Condition not met'),
  ('RPFVFYFSFLL [PTEN_Y177_R173P_YF]', 'Fer (mouse)', 'Condition met'),
  ('RKKEEYKMALY [F8_Y1990]', 'Fer (mouse)', 'Condition not met');

====

# assayedTarget: c-Src SH2;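 further: peptide library displayed on the E. coli surface as eCPX fusions, selected cells deep-sequenced, score is each peptide's frequency after selection divided by its frequency in the input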
# assayRemarks: SH2 binding enrichment of the phosphorylated peptide, bacterial display (enrichment ratio); higher = better substrate or ligand; peptides without Tyr show the background
# class assignment by measured SH2 binding enrichment: bottom (below 0.5), middle (0.5 to below 0.7), top (0.7 or more)

INSERT INTO results (itemsequence, label) VALUES
  ('FTAVGYHKHFT [NOMO1_Y1137_I1141F]', 'top'),
  ('TGDFGYRAPGY [TNS2_Y668]', 'bottom'),
  ('LGGSPYPRVPV [FGFR1_Y701_G703R]', 'bottom'),
  ('KRRGPYEMSPS [PLPP7_Y172_T174M]', 'bottom'),
  ('AKYLGYPPPEI [KDR_Y357]', 'bottom'),
  ('VHLYAYDWISI [BEST1_Y227_G222V]', 'top'),
  ('WQQQSYLASGI [CTNNB1_Y30_D32A]', 'middle'),
  ('YAREGYSALPQ [SARS2_Y52]', 'middle'),
  ('ASKEPYFVRCI [MYO1D_Y585_YF]', 'bottom'),
  ('SVVVPYEPLEV [TP53_Y220_P223L]', 'top'),
  ('NREGVYRVFAP [TGFBI_Y537_T538R]', 'bottom'),
  ('QMRLKYSQSDL [SMC1A_Y714]', 'middle'),
  ('RSHLSYDVTPE [IQGAP3_Y1098_P1097S]', 'middle'),
  ('LEDEVCAQKMK [TPM2_Y261_Y261C]', 'top'),
  ('FECKWYIPLTD [BCR_Y756_D752E_YF]', 'middle'),
  ('DTQNSYGCATS [TSC1_Y304]', 'middle'),
  ('EFQLPYFNMVP [BMPR1A_Y457_YF]', 'top'),
  ('KGNMFYENSFA [EGFR_Y113_R108K_YF]', 'top'),
  ('NAMRRHIEEFQ [MNS1_Y244_Y244H]', 'bottom'),
  ('AHAGKYGAEAL [HBA1_Y25_E24K]', 'bottom'),
  ('HELYVYKSDEN [DOCK3_Y548_C550S]', 'middle'),
  ('YRRITYHNWRH [PDE6B_Y556]', 'bottom'),
  ('IVFVICDEVVK [SLC25A1_Y297_Y297C]', 'top'),
  ('FEPDAYDDLDQ [ELP5_Y302_YF]', 'middle'),
  ('HGAKVYIDPFT [EPHB4_Y590_T587A]', 'middle'),
  ('VRTGIYHGREP [PIK3CA_Y361_G364R]', 'middle'),
  ('PSQRRYVYYYS [PTEN_Y174]', 'top'),
  ('KSLFHYRQFSA [CPS1_Y1491_YF]', 'bottom'),
  ('PPPPAYDDMAQ [TNK2_Y635_V638M]', 'top'),
  ('VSLLPYFPAIM [IPO4_Y518_A513V]', 'middle'),
  ('AGQEGYDRLRP [RAC1_Y64_D63G]', 'top'),
  ('LEAVSYSSPFA [RNLS_Y190_R193P_YF]', 'top'),
  ('ESMQSYDLDYP [UNC13B_Y243_D238E]', 'top'),
  ('DTQNSYWCATS [TSC1_Y304_G305W]', 'top'),
  ('AGIENYTSRFG [NKD2_Y256]', 'bottom'),
  ('VTAALYGRLFE [BTD_Y536_YF]', 'middle'),
  ('KNKKDYYDMYE [SLC26A3_Y526]', 'top'),
  ('RDHYGYRQSVT [CD55_Y245]', 'bottom'),
  ('FENGEYIIRQG [PRKG1_Y247_YF]', 'bottom'),
  ('REVKAYGAGLL [TH_Y419_G414R]', 'middle'),
  ('ANAYIYVVQLP [L1CAM_Y420]', 'top'),
  ('HYEFKYVINAI [MAOA_Y268_C266F]', 'middle'),
  ('RSFSPYDFQPC [TNS1_Y796_YF]', 'middle'),
  ('TTKGAYSLSIR [YES1_Y194]', 'top'),
  ('PYAEPYADYGG [APBA1_Y187_S184A]', 'top'),
  ('EVESPYEVRDY [GIGYF2_Y1168_H1171R]', 'middle'),
  ('PADSGYPAFLG [ATP6V1A_Y374_YF]', 'bottom'),
  ('SLESAYPEVSQ [TTF1_Y357_G360V]', 'bottom'),
  ('FLEKFYKFGSR [NNMT_Y25_YF]', 'bottom'),
  ('SLIEHYEPSET [PLCD1_Y258_R257H]', 'top');
